Target: T1, 4H4001-bA
T1 chain: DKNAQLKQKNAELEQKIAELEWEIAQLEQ
Test: two-hybrid library CCNG1;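 also: natural log of median RNA to DNA barcode read ratio; higher means stronger binding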
Please use satisfied whenever interaction score is not below -0.3, and not satisfied whenever it is.

Below are worked cases with known answers.
Has DKNAQLEQKIAELKQKIAELEWENAQLEQ [4H3427-bA] a recorded interaction score greater than or equal to -0.3?
not satisfied

Has DKNAQLKQKIAELEQEIAELKWKNAQLEQ [4H3855-bA] a recorded interaction score greater than or equal to -0.3?
satisfied

Has DENAQLEQENAELKQKIAELKWEIAQLEQ [4H1257-bA] a recorded interaction score greater than or equal to -0.3?
satisfied

Has DKNAQLKQKNAELEQKIAELEWEIAQLEQ [4H4001-bA] a recorded interaction score greater than or equal to -0.3?
not satisfied

Has DENAQLKQKIAELEQKNAELEWKIAQLEQ [4H1845-bA] a recorded interaction score greater than or equal to -0.3?
not satisfied

Next:
Has DKIAQLKQENAELEQKIAELKWEIAQLEQ [4H2729-bA] a recorded interaction score greater than or equal to -0.3?
not satisfied

Has DKNAQLEQEIAELEQKIAELEWKNAQLKQ [4H3112-bA] a recorded interaction score greater than or equal to -0.3?
not satisfied
